Attribute: MFI pH 6.0
Biological target: T1, human CD3 on CD3+ Jurkat cells (human, UniProt P07766 23-207)
T1 construct: whole, on cells; Native CD3 complex on cells; the other CD3 chains are not specified for this assay; also called Human CD3+ Jurkat
T1 sequence (P07766 23-207): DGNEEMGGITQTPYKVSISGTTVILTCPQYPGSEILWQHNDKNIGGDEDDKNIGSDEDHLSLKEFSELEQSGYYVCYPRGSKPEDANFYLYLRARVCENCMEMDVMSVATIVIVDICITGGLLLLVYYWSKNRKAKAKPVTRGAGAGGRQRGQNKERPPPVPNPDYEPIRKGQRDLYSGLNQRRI
Assay: flow cytometry, 100 nM IgG on CD3+ Jurkat cells, pH 6.0
Description: Specificity of the anti-CD3 antibodies for human CD3+ Jurkat cells compared to CHO-S cells at pH 6.0 and 7.4 was determined using a FACS cell binding assay. Briefly, CD3+ human Jurkat cells and CHO-S cells were thawed and washed with cold PBSF buffer, pH 7.4 (PBS+0.1% BSA, pH 7.4). About 200,000 cells were aliquoted per well of a 96-well plate and pelleted by centrifugation (5 minutes at 500×g). […] Binding was analyzed on FACS Canto II. Cell binding assays. […] Binding was analyzed on FACS Canto II.
Please don't drop the unit; write it after the number.

Some solved cases for reference:
>  <binder>
SAD10320_P04_H11 (ADI-48662) (antibody, V domains shown, IgG; also called Ab116) VH: QVQLVQSGAEVKKPGASVKVSCKASGFNIKDYYMHWVRQAPGQRLEWMGWIDLENANTIYDAKFQGRVTITRDTSASTAYMELSSLRSEDTAVYYCARDAYGHVFYDVWGQGTLVTVSS VL: DIVMTQSPDSLAVSLGERATINCKSSQSLLNARTGKNYLAWYQQKPGQPPKLLIYWASTRESGVPDRFSGSGSGTDFTLTISSLQAEDVAVYYCKQSYQHRTFGGGTKVEIK

>  <result>
81 MFI

$$$$
>  <binder>
SAD10318_P04_A12 (ADI-48618) (antibody, V domains shown, IgG; also called Ab224) VH: QVQLVQSGAEVKKPGASVKVSCKASGFNIKDYYMHWVRQAPGQRLEWMGWIDLENANTIYDAKFQGRVTITRDTSASTAYMELSSLRSEDTAVYYCARDAYHRHFYDVWGQGTLVTVSS VL: DIVMTQSPDSLAVSLGERATINCKSSQSLLHPRTGKNYLAWYQQKPGQPPKLLIYWASTRESGVPDRFSGSGSGTDFTLTISSLQAEDVAVYYCKQSYHHRTFGGGTKVEIK

>  <result>
170 MFI

$$$$
>  <binder>
SAD10320_P02_C04 (ADI-48648) (antibody, V domains shown, IgG; also called Ab71) VH: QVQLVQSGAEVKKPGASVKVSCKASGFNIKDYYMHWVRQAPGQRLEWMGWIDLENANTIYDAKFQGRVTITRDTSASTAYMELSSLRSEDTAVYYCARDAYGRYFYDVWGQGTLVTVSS VL: DIVMTQSPDSLAVSLGERATINCKSSQSLLNARTGKNYLAWYQQKPGQPPKLLIYWASTRESGVPDRFSGSGSGTDFTLTISSLQAEDVAVYYCKQSHTRRTFGGGTKVEIK

>  <result>
6160 MFI

$$$$

Now turn to the next binder.
// fetch MFI pH 6.0 given entry SAD10318_P01_F02 (ADI-48585) (antibody, V domains shown, IgG; also called Ab14) VH: QVQLVQSGAEVKKPGASVKVSCKASGFNIKDYYMHWVRQAPGQRLEWMGWIDLENANTIYDAKFQGRVTITRDTSASTAYMELSSLRSEDTAVYYCARDAHGHYFYDVWGQGTLVTVSS VL: DIVMTQSPDSLAVSLGERATINCKSSQSLLNAHTGKNHLAWYQQKPGQPPKLLIYWASTRESGVPDRFSGSGSGTDFTLTISSLQAEDVAVYYCKQSHSHRTFGGGTKVEIK
381 MFI
